Hello, the source for this data is PubChem BioAssay (NCI), in case you need it.

- Tested on: DMS 273 small cell lung
- assay comment: NCI tumour cell line growth inhibition, 48 h

[
  {
    "compound": "CC1=C(C(=O)Nc2ccccc2)C(c2ccc(N(C)C)cc2)C(C(=O)Nc2ccccc2)=C(C)N1",
    "TGI": "> 31.8 µM"
  },
  {
    "compound": "COc1cc(Nc2cnc3ccc(C(F)(F)F)cc3n2)cc(OC)c1OC",
    "TGI": "> 100 µM"
  },
  {
    "compound": "Cc1ccc2c(c1)CN1c3ccc(C)cc3CN2C1c1ccccc1O",
    "TGI": "> 100 µM"
  },
  {
    "compound": "CCOC(=O)C1C(c2ccc(Cl)cc2Cl)NC(c2ccc(C)cc2)C(C(=O)OC)S1(=O)=O (stereo not given)",
    "TGI": "> 100 µM"
  },
  {
    "compound": "COC(=O)C1C(=O)O[C@@H](c2ccc3c(c2)OCO3)C1C(=O)OC (mixture of isomers)",
    "TGI": "> 100 µM"
  }
]

###

Reported TGI values follow for various compounds
- System: RPMI-8226 leukemia
- assay comment: NCI tumour cell line growth inhibition, 48 h

[
  {
    "compound": "CCOC(=O)c1csc(NC(=O)C(C)N2CCCC2)n1 (stereo unspecified)",
    "target": "RPMI-8226 leukemia",
    "TGI": "> 100 µM"
  },
  {
    "compound": "COc1cc(C)c(CC/C(C)=C/Cc2cc(O)ccc2O)c(C)c1C",
    "target": "RPMI-8226 leukemia",
    "TGI": "> 25 µM"
  },
  {
    "compound": "CC(=O)c1ccc(Oc2c3ccccc3nc3ccccc23)cc1",
    "target": "RPMI-8226 leukemia",
    "TGI": "9.63 µM"
  },
  {
    "compound": "O=C(O)c1nc2ccc(C(F)(F)F)cc2[nH]c1=O",
    "target": "RPMI-8226 leukemia",
    "TGI": "> 100 µM"
  },
  {
    "compound": "CN(C)CCCC1(c2ccc(F)cc2)OCc2cc(-c3cccc4[nH]ccc34)ccc21 (stereo unspecified)",
    "target": "RPMI-8226 leukemia",
    "TGI": "4.12 µM"
  },
  {
    "compound": "CN[C@@H](C)C(=O)N[C@H]1CN(S(=O)(=O)c2cccc(S(=O)(=O)N3CC[C@H]4CC[C@@H](C(=O)NC(c5ccccc5)c5ccccc5)N4C(=O)[C@@H](NC(=O)[C@H](C)NC)C3)c2)CC[C@H]2CC[C@@H](C(=O)NC(c3ccccc3)c3ccccc3)N2C1=O",
    "target": "RPMI-8226 leukemia",
    "TGI": "99.2 µM"
  },
  {
    "compound": "Cc1ccc2c(c1C)C(=O)C1(Cc3cc4c(cc3C1=O)CCC4)C2 (stereo unspecified)",
    "target": "RPMI-8226 leukemia",
    "TGI": "> 100 µM"
  },
  {
    "compound": "COc1ccc(CNc2cnc3ccc(N)cc3n2)cc1",
    "target": "RPMI-8226 leukemia",
    "TGI": "> 100 µM"
  },
  {
    "compound": "CC1CC(N2CCOCC2)=Nc2ccccc2N1C (stereo unspecified)",
    "target": "RPMI-8226 leukemia",
    "TGI": "> 100 µM"
  },
  {
    "compound": "COc1cc([C@@H]2c3cc4c(cc3[C@@H](NC(=O)c3ccc(C#N)cc3)C3COC(=O)[C@@H]32)OCO4)cc(OC)c1O (stereo partly specified)",
    "target": "RPMI-8226 leukemia",
    "TGI": "11.7 µM"
  },
  {
    "compound": "Cc1nc(N)nc(CCC(=O)Nc2cccc(C(F)(F)F)c2)c1-c1ccc(Cl)cc1",
    "target": "RPMI-8226 leukemia",
    "TGI": "> 100 µM"
  }
]
